Biological target: T1, human DLL3 antigen (human, UniProt Q9NYJ7 27-492, limits assumed)
T1 construct: also called immobilized human DLL3; recombinant human DLL3
T1 sequence (looked up): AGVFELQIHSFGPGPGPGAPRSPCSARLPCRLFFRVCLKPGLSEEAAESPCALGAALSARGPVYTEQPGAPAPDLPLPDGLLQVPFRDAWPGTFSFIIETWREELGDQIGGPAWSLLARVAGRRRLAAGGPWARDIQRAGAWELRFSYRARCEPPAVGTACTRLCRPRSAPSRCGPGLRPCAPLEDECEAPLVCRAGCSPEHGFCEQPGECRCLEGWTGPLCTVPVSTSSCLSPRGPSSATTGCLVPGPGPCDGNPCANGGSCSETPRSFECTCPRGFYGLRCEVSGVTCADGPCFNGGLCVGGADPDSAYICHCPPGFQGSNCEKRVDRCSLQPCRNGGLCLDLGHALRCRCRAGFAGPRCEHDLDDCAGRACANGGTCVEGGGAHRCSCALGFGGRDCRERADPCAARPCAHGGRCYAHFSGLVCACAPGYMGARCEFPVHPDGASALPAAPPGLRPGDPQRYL
Assay: ELISA or flow cytometry screen
property label: binding result

binder	obs value
SC16.55 (antibody, V domains shown, murine mAb) VH: EVQLVESGGGLVQPKGSLKLSCAVSAFTFTTYAMNWVRQAPGKGLEWVARIRNKSNNYATYYADSVKDRFTISRDDSQSMLYLQMNNLKIEDTAMYYCVFYYDYVYWGQGTLVTVSA VL: DIKMTQSPSSMYASLGERVTITCKASQDINSYLNWFQQKPGKSPKTLIYRANRLVDGVPSRFSGSGSGQDYSLTISSLEYEDMGIYYCLQYDEFPYTFGGGTKLEIKR	binds
SC16.63 (antibody, V domains shown, murine mAb) VH: QVQLQQSGTELLRPGASVKISCKATGYTFSSYWMEWVKQRPGHGLEWIGEILPGSGTTQYNEKFKGKATFTADTSSNTAYMHLSSLTSEDSAVYYCARGTNSLWGQGTLVTVSA VL: QIVLTQSPAIMSASPGEKVTMTCSASSSVSYMYWYQQKSGTSPKRWIYDTSKLASGVPARFSGSGSGTSYSLTISSMEAEDAATYYCQQWSSNPYTFGGGTKLEIK	binds
SC16.3 (antibody, V domains shown, murine mAb; also called mAb SC16.3) VH: QVTLKESGPGILQPSQTLSLTCSFSGFSLSTSGMGVGWIRQPSGKGLEWLAHIWWDDVKRYNPALKSRLTISKDTSSSQVFLKIASVDTADTATYYCARIADYGGDYYAMDYWGQGTSVTVSS VL: QIVLTQSPAIMSVSLGERVTMTCTASSSVSSSYLHWYQQKPGSSPKLWIYSTSNLASGVPARFSGSGSGTSYFFTISSMEAEDAATYYCHQYHRSPFTFGAGTKLKIR	binds
